Recorded below: log10 IC50, system Acetylcholinesterase (Electrophorus electricus, UniProt O42275).
Measurement name: log10 IC50 (log10 of the value in µM)

{"Sample smiles": "COc1cc2c(Nc3cccc(O)c3)c([N+](=O)[O-])cnc2cc1OCCCN(C)Cc1ccccc1", "log10 IC50": -0.15}
{"Sample smiles": "COc1cc2c(Nc3ccc(Cl)cc3Cl)c([N+](=O)[O-])cnc2cc1OCCCN(C)Cc1ccccc1", "log10 IC50": 0.27}
{"Sample smiles": "COc1cc2c(Nc3ccc(C)cc3)c([N+](=O)[O-])cnc2cc1OCCCN(C)Cc1ccccc1", "log10 IC50": 1.07}
{"Sample smiles": "COc1cc2c(Nc3ccc(Cl)cc3)c([N+](=O)[O-])cnc2cc1OCCCN(C)Cc1ccccc1", "log10 IC50": 0.27}
{"Sample smiles": "COc1cc2c(Nc3ccccc3Cl)c([N+](=O)[O-])cnc2cc1OCCCN(C)Cc1ccccc1", "log10 IC50": -0.07}
{"Sample smiles": "COc1cc2c(Nc3ccc(O)cc3)c([N+](=O)[O-])cnc2cc1OCCCN(C)Cc1ccccc1", "log10 IC50": -0.13}
